// provenance: the supplement of paper PMC11061612

Tested on: WSU-NHL (B-Cell Non-Hodgkin's Lymphoma);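 further: after 72 h of two-drug dosing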
Assay: Bliss excess, mean over the matrix (fraction); higher = more synergy
observation type: Bliss excess
A bare number is all that is needed in reply.

# compound, experimental system, Bliss excess
measured = [
    ("COc1cc2ncnc(Nc3ccc(F)c(Cl)c3)c2cc1OCCCN1CCOCC1 [Gefitinib] + CC(C)n1c(=O)n(C)c2cnc3cc(F)c(-c4ccc(OCCCN5CCCCC5)nc4)cc3c21 [AZD1390] (first compound max 10 µM, 7x7, partner max 0.3 µM)", "WSU-NHL (B-Cell Non-Hodgkin's Lymphoma)", -0.0499),
    ("Cc1c2c(nn1C)CSCc1cc(n(C)n1)CSc1cc(c3ccccc3c1)OCCCc1c(C(=O)O)n(C)c3c-2c(Cl)ccc13 [AZD5991] + C=CCn1c(=O)c2cnc(Nc3ccc(N4CCN(C)CC4)cc3)nc2n1-c1cccc(C(C)(C)O)n1 [AZD1775] (first compound max 1 µM, partner max 1 µM)", "WSU-NHL (B-Cell Non-Hodgkin's Lymphoma)", -0.0459),
]

Briefly, Bliss excess measured for Cc1c2c(nn1C)CSCc1cc(n(C)n1)CSc1cc(c3ccccc3c1)OCCCc1c(C(=O)O)n(C)c3c-2c(Cl)ccc13 [AZD5991] + CS(=O)(=O)CCNCc1ccc(-c2ccc3ncnc(Nc4ccc(OCc5cccc(F)c5)c(Cl)c4)c3c2)o1 [Lapatinib] (first compound max 1 µM, 7x7, partner max 10 µM) : -0.0347
